- PROTOCOL SUMMARY: gradient 5% acetonitrile 3 min, to 50% in 2 min, to 85% in 15 min, held 3 min, 100 µL/min
- CONDITION: column: Zorbax Extend-C18 2.1 x 50 mm; eluents: water / acetonitrile, 0.1% formic acid
MEASUREMENT TYPE: RP-LC retention time (s)

Sample records with RP-LC retention time:
>  <MOLECULE>
COc1ccc(NC(=O)N2CCC(n3cnnc3C3CC3)C2)c(OC)c1 (stereo unspecified)

>  <DATA VALUE>
610

$$$$
>  <MOLECULE>
O=C(N[C@@H]1CN(c2ncccn2)C[C@H]1CO)c1ccoc1

>  <DATA VALUE>
567

$$$$
>  <MOLECULE>
O=C(Nc1ccccc1)C1CCN(C(=O)C2Sc3ccccc3NC2=O)CC1 (stereo unspecified)

>  <DATA VALUE>
731

$$$$
>  <MOLECULE>
O=C1N(c2ccccc2)CC12CCN(S(=O)(=O)Cc1ccccc1)CC2

>  <DATA VALUE>
654

$$$$
>  <MOLECULE>
Cc1ccc([N+](=O)[O-])cc1S(=O)(=O)Nc1ccc(-c2cn3ccccc3n2)cc1

>  <DATA VALUE>
664

$$$$
>  <MOLECULE>
CC(C)Cc1ccc([C@H](C)C(=O)O)cc1

>  <DATA VALUE>
1040

$$$$
>  <MOLECULE>
COc1cc(-c2nc3ccc(Cl)cn3c2Nc2ccc(Cl)cc2)ccc1O

>  <DATA VALUE>
746

$$$$
>  <MOLECULE>
Cc1ccc2nc3c(c(C(=O)NC(C)C)c2c1)CCC3

>  <DATA VALUE>
610

$$$$
>  <MOLECULE>
COCCn1c(C2CCN(S(=O)(=O)c3ccc(F)c(Cl)c3)C2)nc2ccncc21 (stereo unspecified)

>  <DATA VALUE>
590

$$$$
>  <MOLECULE>
CCCc1ccc(S(=O)(=O)N2CCC3(CC2)CCC(O)(CN2CCCC2)CC3)cc1

>  <DATA VALUE>
735

$$$$

[1] Cn1nnc2cc(C(=O)N3CCCCC3)ccc21
[2] CCCC(=O)N1CCc2c([nH]c3ccccc23)C1c1ccc(OCC)cc1 (stereo unspecified)
Form field 'greater RP-LC retention time' accepts 1 or 2 ; which applies? Answer = label.
2
(2: 1140 s, 1: 738 s)

[1] CCOc1ccc(NC(=O)c2cnc(N3CCN(CC)CC3)nc2N)cc1
[2] Cc1cccc(N2CCN(S(=O)(=O)c3cc4c(s3)CCN(C(=O)C3CC3)C4)CC2)c1
Returns: the label, 1 or 2 , whose recorded RP-LC retention time is the lower number. Answer = label.
1

FYI, the data here is from the METLIN SMRT retention time set (Domingo-Almenara et al. 2019).
